# System name: T1, PARP4 BRCT F39A (human, UniProt Q9UKK3 1-100, F39A)
# T1 sequence: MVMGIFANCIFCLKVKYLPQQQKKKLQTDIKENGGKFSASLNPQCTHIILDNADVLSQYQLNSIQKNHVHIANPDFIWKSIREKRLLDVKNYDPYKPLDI
# Procedure summary: EMSA; 20 nM probe; FP: 50 mM Tris pH 7.5, 50 mM NaCl, 1 mM MgCl2, 0.05% NP40, 2 mM DTT, 5% glycerol, 25 ug/ml BSA, room temp 30 min; EMSA: 50 mM Tris pH 7.5, 50 mM NaCl, 4% Ficoll PM400, 0.05% NP40, 2 mM DTT, 0-18 uM protein, room temp 30 min, gel at 4 C
# Condition summary: protein: recombinant; tags: N-terminal His-SUMO removed by TEV; label: 5'-6-FAM; predicted intramolecular fold
Measured attribute: Kd (nM)

>>> data_value("vtRNA1-3 (structured_RNA) RNA: GGCUGGCUUUAGCUCAGCGGUUACUUCGCGUGUCAUCAAACCACCUCUCUGGGUUGUUCGAGACCCGCGGGCGCUCUCCAGCCCUCUU")
600
